target: Human ROR2 (human, UniProt Q01974); experiment: Octet
Sequence (Q01974 34-403 limits assumed): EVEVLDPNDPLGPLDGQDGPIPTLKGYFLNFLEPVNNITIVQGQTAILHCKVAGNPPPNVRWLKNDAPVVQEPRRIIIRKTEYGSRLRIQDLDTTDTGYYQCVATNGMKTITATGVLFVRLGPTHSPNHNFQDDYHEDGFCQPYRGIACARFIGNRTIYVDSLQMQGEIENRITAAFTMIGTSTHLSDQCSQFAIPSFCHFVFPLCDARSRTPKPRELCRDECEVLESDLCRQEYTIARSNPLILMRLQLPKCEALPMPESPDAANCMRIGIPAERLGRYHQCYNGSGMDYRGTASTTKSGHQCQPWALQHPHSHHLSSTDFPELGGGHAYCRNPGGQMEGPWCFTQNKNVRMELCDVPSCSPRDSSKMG
parameter.measured: binding result

Please review the following examples before continuing.
323H7 chimeric rabbit/human IgG antibody (antibody, V domains shown, Rabbit variable regions on human gamma-1 and human kappa constant domains) VH: QEQLKESGGGLVTPGGTLTLTCTASGFTISRYHMTWVRQAPGKGLEWIGHIYVNNDDTDYASWAKGRFTISKTSTTVDLKITSPTTEDTATYFCARLDVGGGGAYIGDIWGQGTLVTVSS VL: QAVVTQTPSSVSAAVGGTVTISCQSSQSVYNNNDLAWYQQKPGQPPKLLIYYASTLASGVSSRFKGSGSGTQFTLAISDLECDDSATYYCAGGYDTDGLDTFAFGGGTEVEVKR = no binding
338H4 chimeric rabbit/human IgG antibody (antibody, V domains shown, Rabbit variable regions on human gamma-1 and human kappa constant domains) VH: QSVEESGGRLVTPGTPLTLTCTVSGFSLSSYAMSWVRQAPGRGLEWIGIIYASGSTYYASWAKGRFTISKTSTTVDLKITSPTTEDTATYFCARIYDGMDLWGPGTLVTVSS VL: DIVMTQTPASVSAAVGGTVTINCQASQNIYSYLSWYQQKPGQPPKRLIYLASTLASGVPSRFKSSGSGTEYTLTISDLECDDAATYYCQSNYNGNYGFGGGTEVEVKR = no binding
324C7 chimeric rabbit/human IgG antibody (antibody, V domains shown, Rabbit variable regions on human gamma-1 and human kappa constant domains) VH: QSVEESGGRLVTPGTPLTLTCTVSGFSLSGAGVSWVRQAPGKGLEWIGYIDSGATTYYASWAKGRFTISKASTTVDLKIASPTTEDTATYFCARGYYGMDPWGQGTLVTVSS VL: DIVMTQTPASVEVAVGGTVTIKCQASQNIGSDLAWYQQKPGQPPKLLIYTTSNLASGVPSRFKGSGSGTGFTLTISDLECADAASYCCQGGYFSGRNIYGNAFGGGTEVVVKR = no binding
323D10 chimeric rabbit/human IgG antibody (antibody, V domains shown, Rabbit variable regions on human gamma-1 and human kappa constant domains) VH: QSVEESGGRLVTPGTPLTLTCTVSGFSLSRNAMNWVRQAPGKGLEYIGYISTSGTTFYANWVKGRFTISKTSTTVDLKMTSLTTEDTATYFCARDYNYAMDIWGQGTLVTVSS VL: AIDLTQTPASVEAAVGGTITINCQASESISSWLAWYQQKPGQRPKLLIYETSKLASGVPPRFSGSGSGTQFTLTISGVQCDDAATYYCQSYYRINNIGYDNAFGGGTEVEFKR = no binding
330F11 chimeric rabbit/human IgG antibody (antibody, V domains shown, Rabbit variable regions on human gamma-1 and human kappa constant domains) VH: QSVEESGGRLVTPGTPLTLTCTVSGFSLNNYWMSWVRQAPGEGLEWIGTISSGAYTWFATWATGRFTISKTSTTVDLSITSPTTEDTATYFCARYSSTTDWTYFNIWGPGTLVTVSS VL: DVVMTQTPASVEAAVGGTVTIKCQASQSINNYLAWYQQKPGQPPKLLIYRASTLESGVPSRFKGSGSGTQFTLTISDLECADAATYYCQSYNGVGRTAFGGGTEVEFKR = no binding
324E2 chimeric rabbit/human IgG antibody (antibody, V domains shown, Rabbit variable regions on human gamma-1 and human kappa constant domains) VH: QSVEESGGRLVTPGTPLTLTCTVSGFSLSNNAITWVRQAPGKGLEYIGIISSSGTTYYASWAKGRFTISKTSSTTVDLKMTSLTTEDTATYFCAGAFSVWGPGTLVTVSS VL: AQVLTQTPSSVSAAVGGTVTINCQSSQSVNNNDLAWFQQKPGQPPKRLIYWASKLASGVPSRFKGSGSGTQFILTISDLECDDAATYYCAGGYSGNIYGFGGGTEVEVKR = no binding

# next binder below
Tell me the measured binding result of 324C6 chimeric rabbit/human IgG antibody (antibody, V domains shown, Rabbit variable regions on human gamma-1 and human kappa constant domains) VH: QSLEESGGRLVTPGTPLTLTCTASGFSLSRYYMTWVRQAPGKGLEWIGTIYTSGSTWYASWTKGRFTISKTSTTVDLKITSPTTEDTATYFCARSYYGGDKTGLGIWGPGTLVTVSS VL: DVVMTQTPASVEAAVGGTVTIKCQASQSIDSWLSWYQQKPGQPPKLLIYQASTLASGVSSRFKGSGSGTEFTLTISDLECADAATYYCQCAYGVSGTSSYLYTFGGGTEVEVKR , please.
no binding

// provenance: patent US20210277109A1
